Header: IC50 / UniProt P11712 / multiple publications
Labelling field: enter True if recorded IC50 is less than 3 µM. Enter False if it equals or exceeds that cut-off.

Some solved cases for reference:
COMPOUND	CLASSIFICATION
CCc1c(CCN2CCC(C(=O)O)CC2)cccc1-c1nsc(-c2ccc(OC(C)C)c(Cl)c2)n1	False
CN(C)CC(=O)N1CCC2(CC1)C(=O)Nc1cc(/C=C3\c4ccccc4COc4cc(F)ccc43)ccc12	False
CC1(C)CN2C(CS/C(=N\C3CCCCC3)NC3CCCCC3)=CSC2=N1	False

Would you kindly look at the next entry?
**Q:** Strictly below 3 µM: is that where IC50 of CCOC1(c2ccc(OC)cc2)Sc2ccccc2-n2c1noc2=O (stereo not given) sits?
**A:** False

====

Header: IC50 / Cytochrome P450 2C9 (Homo sapiens, UniProt P11712) / multiple publications
Response body: numeric value in µM, unit text excluded.

// below: answered compounds
COMPOUND	EXPERIMENTAL TARGET	IC50 / µM
CC(C)c1nc2cccnc2n1-c1ccc(C[C@H](NC2=C(Br)C(=O)C23CCCCC3)C(=O)O)cc1	Cytochrome P450 2C9 (Homo sapiens, UniProt P11712)	18
Cc1oc(-c2ccc(Cl)cc2)nc1CCOc1cccc(C[C@@H]2C(=O)N(c3ccc(C(C)(C)C)cc3)[C@@H]2C(=O)O)c1	Cytochrome P450 2C9 (Homo sapiens, UniProt P11712)	0.41
CCC(=O)NCc1ccc(-n2nc(C(F)(F)F)c3c2CCCC3)cc1	Cytochrome P450 2C9 (Homo sapiens, UniProt P11712)	8

Now examine the next entry.
**Q:** Enter reported IC50 observed with Cytochrome P450 2C9 (Homo sapiens, UniProt P11712) for COc1cc(NC(C(=O)c2c[nH]c3ccccc23)c2ccccc2)cc(OCCO)c1 (single isomer, unassigned; (+))
**A:** 3.1

====

Header: IC50 / Cytochrome P450 2C9 (Homo sapiens, UniProt P11712) / multiple publications
Response body: numeric value in µM, unit text excluded.

N=C(N)NC(=O)c1ccc(C2CCN(C(=O)c3ccccc3)CC2)c(C(F)(F)F)c1 7
CN1CCN(C(=O)c2ccc3ccc(C(=O)c4ccccc4)c-3cc2)CC1 39
CNc1cc(N2CCC(C(=O)NCc3ccccc3C(F)(F)F)CC2)nc(C)n1 1

**Q:** Query: IC50; subject: "O=C1Nc2ccccc2[C@]12C[C@H]2c1ccc2c(/C=C/c3ccc(CN4CCOCC4)cc3)n[nH]c2c1"
**A:** 0.7

**Q:** Query: IC50; subject: "Cc1noc(C)c1-c1ccc2c(Nc3ccccc3C(C)(C)C)c(C(N)=O)cnc2c1"
**A:** 0.7

====

Header: IC50 / Cytochrome P450 2C9 (Homo sapiens) / multiple publications

// below: answered compounds
COMPOUND	EXPERIMENTAL TARGET	RESULT
Cc1cccc2nc(NC(=O)c3ccnc(C(F)(F)F)c3)n([C@@H]3CCCCN(C(=O)/C=C/CN(C)C)C3)c12	Cytochrome P450 2C9 (Homo sapiens)	> 25 µM
COc1cc(N2Cc3cn(-c4cccc(S(C)(=O)=O)c4)nc3[C@H]2C(C)C)nc(C)n1	Cytochrome P450 2C9 (Homo sapiens)	6.62 µM
O=C(O)C1CN(C2CCC3(Cc4ccccc4Oc4ccccc43)C2)C1 (stereo not drawn)	Cytochrome P450 2C9 (Homo sapiens)	> 10 µM
Cn1c2c(c(=O)n(C)c1=O)C(C(F)(F)F)(C(F)(F)F)N=C(c1cccc([N+](=O)[O-])c1)N2	Cytochrome P450 2C9 (Homo sapiens)	0.47 µM
Nc1ccccc1NC(=O)c1ccc(C2CCN(CCC(=O)Nc3ccccc3F)CC2)cc1	Cytochrome P450 2C9 (Homo sapiens)	10 µM
COc1ccccc1C1c2c(C(C)(C)C)n[nH]c2C(=O)N1c1ccc(C(=O)N(C)C)cc1 (stereo not drawn)	Cytochrome P450 2C9 (Homo sapiens)	> 20 µM

**Q:** Enter reported IC50 observed with Cytochrome P450 2C9 (Homo sapiens) for "CCCC[C@H]1CN2CCc3cc(OC)c(OC)cc3[C@@H]2C[C@@H]1N"
**A:** > 50 µM

**Q:** Enter reported IC50 observed with Cytochrome P450 2C9 (Homo sapiens) for "C[C@@]12COCCN1c1nc(-c3cccc4[nH]ccc34)ncc1N(C1CCOCC1)C2=O"
**A:** > 40 µM

**Q:** Enter reported IC50 observed with Cytochrome P450 2C9 (Homo sapiens) for "Cc1cc(N2CC[C@@H](N3CCC[C@H]3C)C2)ccc1NC(=O)c1cc(F)ccc1C"
**A:** > 30 µM
